measured-on: T1, human apical domain of CD71 (human, UniProt P02786 189-383, limits assumed)
T1 construct: domain: apical domain
protocol-description: primary ELISA; signal over HSA control
Answer each item with its documented Apical domain:HSA.
Numbers only, in ratio.

Sample records with Apical domain:HSA:
binder | endpoint | unit-tag | value-measured
CD71-binding FN3 domain SEQ ID NO 364 (designed binder) MLPAPNNLVVSRVTEDSARLSWTAPDAAFDSFFIGYLEPQPPGEAIHLFVPGSERSYDLTGLKPGTEYNVTIQGVKGGFPSGPLHATFTT | Apical domain:HSA | ratio | 67
CD71-binding FN3 domain SEQ ID NO 367 (designed binder) MLPAPKNLVVSRVTEDSARLSWTAPDAAFDSFYIAYAEPRPDGEAILLVVPGSERSYDLTGLKPGTEYSVLIHGVKGGLLSSPLVAFFTT | Apical domain:HSA | ratio | 66
CD71-binding FN3 domain SEQ ID NO 362 (designed binder) MLPAPKNLVVSRVTEDSARLSWTAPDAAFDSFEIAYWENNFNGEAIILIVPGSERSYDLTGLKPGTEYVVFISGVKGGTWSYPLVAQFTT | Apical domain:HSA | ratio | 102

# ---- query binder ----
Prompt: Which Apical domain:HSA is listed for CD71-binding FN3 domain SEQ ID NO 356 (designed binder) MLPAPKNLVVSRITEDSARLSWTAPDAAFDSFFIGYLEPQPPGEAITLLVPASERSYDLTGLKPGTEYNVTIQGVKGGFPSHPLQAQFTT ?
Completion: 337
